Source: PubChem BioAssay (NCI)

Tested on: HOP-92 NSCLC
assay: NCI tumour cell line growth inhibition, 48 h
Give measured TGI for each item. Keep answers brief.

Q. Notebook entry, HOP-92 NSCLC assay: TGI of O=c1[nH]c2ccc([N+](=O)[O-])cc2nc1/C(=N/Nc1ccccc1)C(O)c1ccco1 (stereo unspecified) = ?
A. > 100 µM

Q. Notebook entry, HOP-92 NSCLC assay: TGI of "CSc1nc(C)c2c(n1)N(c1ccc(Cl)cc1)CC2" = ?
A. > 100 µM

Q. Notebook entry, HOP-92 NSCLC assay: TGI of "COC(=O)[C@H](Cc1cn(C)cn1)NC(=O)[C@@H](NC(=O)Nc1cc(C(F)(F)F)cc(C(F)(F)F)c1)C(C)C" = ?
A. > 10 µM

Q. Notebook entry, HOP-92 NSCLC assay: TGI of CC(NNC(=O)c1ccncc1)c1ccc(Cl)cc1Cl (stereo unspecified) = ?
A. > 100 µM

Q. Notebook entry, HOP-92 NSCLC assay: TGI of "CC(C)=CC(=O)c1c(C(=O)O)nc2ccccc2[n+]1[O-]" = ?
A. > 100 µM

Q. Notebook entry, HOP-92 NSCLC assay: TGI of "CCC(=C/[C@H](C)C/C=C/C(C)=C/[C@@H](C)C(=O)[C@@H](C)[C@H](O)[C@@H](C)CC)/C=C/[C@H]1CC=CC(=O)O1" = ?
A. 4.26 µM
